The entries below come with measured pKd values attached.
# Subject of test: T1, Histidine-tagged ROR1 protein (extracellular region) (UniProt Q01973 30-406)
# T1 construct: extracellular domain; also called extracellular portion of ROR1 bearing a Histidine tag; not shown: Histidine tag
# Test method notes: SPR, Biacore X100; antibody captured by anti-human IgG1 on CM5 chip, His-tagged ROR1 extracellular portion injected at 1.5-100 nM
pKd: −log10 of the molar value.
Assay metric: pKd

Binder | Endpoint result
Clone G3 chimeric ROR1 antibody (antibody, V domains shown) VH: EVQLQESGPGLVKPAQSLSLTCSVTGYSITNMYRWNWIRKFPGNKLEWMGYINTAGSTDYSPSLRGRVSITGDTSKNQFFLHLTSVTTEDTATYYCAGFITNPFDFWGQGVMVTVSS VL: DVVMTQTPVSLPVSLGGQVSISCRSSQSLEHSNGDTFLHWYLQKPGQSPRLLIYRVSNRFSGVPDRFSGSGSGTDFTLKISRIEPEDLGDYYCLQSTHFPNTFGAGTKLELK | 8.61
Clone F chimeric ROR1 antibody (antibody, V domains shown) VH: EVQLVESGGGLVQPGRSLKLSCAASGFIFSEHNMAWVRQAPKKGLEWVATISDDGRNTYYRDSMRGRFTISRENARSTLYLQLDSLRSEDTATYYCASHRYNLFDSWGQGVMVTVSS VL: DIQMTQSPSFLSASVGDRVTINCKASQNIDRYLNWYQQKLGEAPKRLLYNTNKLQTGIPSRFSGSGSATDFTLTISSLQPEDFATYFCLQYNSLPLTFGSGTKLEIK | 8.26
Clone Pi chimeric ROR1 antibody (antibody, V domains shown) VH: EVQLVESGGGLVQPGRSLTLSCSASGFTFRDYNMAWVRQAPRKGLEWVATISFDDYNTYYRDSVKGRFTISRDDAKSTLYLQMDSLRSEDTATYYCARPGTYWGQGTLVTVSS VL: DIQLTQSPSSLSASLGDRVSLTCQSSQGIGKYLSWFQHKPGKPPKPVINYATNLADGVPSRFSGRRSGSDFSLTISSLESEDTAIYYCLQFDDFRWTVGGGTKLELK | 8.70
Clone G5 chimeric ROR1 antibody (antibody, V domains shown) VH: EVQVVESGGGLVQPGRSLKLSCVPSGFTFNNYWMTWIRQAPGKAPEWVASISNTGGSTFYPDSVRGRFSISRDNTKGTLYLHMTSLRSEDTATYYCIRNMDAWGQGTSVTVSS VL: DIQLTQSPSTLSASLGERVTISCRASQSISNSLNWYQQKPDGTVKRLIYSTSTLESGVPSRFSGSGSGTDFSLSISSLESEDFAMYYCLQFATYPQVTFGSGTKLEIK | 8.58
Clone A chimeric ROR1 antibody (antibody, V domains shown, also called SA1) VH: QVQLQQSGTELVKPASSVRISCKASGYTLTTNYMHWIRQQPGNGLEWIGWIYPGNGNTKFNHKFDGRTTLTADKSSSIVYMQLSSLTSEDSAVYFCARSDFDYWGQGVMVTVSS VL: DIQMTQSPSSMSASLGDRVTFTCQASQDIGNNLIWFQQKPGKSPRPLMYFATSLANGVPSRFSGSRSGSDYSLTISSLESEDLADYHCLQYREYPLTFGSGTKLDLK | 8.74
Clone B chimeric ROR1 antibody (antibody, V domains shown, also called B5) VH: DVQLEESGGGLVRPGRSLKLSCADSGVNFSNRGMAWVRQAPTKGLEWVATISYDGRIIYYRDSVKGRFSISRENAKSTLYLQMDSLRSEDTATYYCARHPIAADWYFDFWGPGTMVTVSS VL: DIRMTQSPASLSASLGETVTIECLTSEDIYSDLAWFQQKPGKSPQLLIYDANSLQNGVPSRFGGCGSGTQYSLQISSLQSEDVATYFCQQYKNYPPTFGGGTKLVLK | 8.82
Clone E7 chimeric ROR1 antibody (antibody, V domains shown) VH: GKLVESGGGLLKPGGSLKLSCVASGFTFDKYWMHWVRQAPGKGLEWIAEIEYDGTETNYAPSIKDRFTISRDNAKNTLYLQMSNVRSEDAATYFCTTEEMYTTDYYYGFAYWGQGTLVTVSS VL: DIVLTQSPALAVSVGQRATISCRASQSVSISRYNFMHWYQQKPGQQPKLLIYRASNLASGIPARFSGSGSGTDFTLTINPVQADDIATYYCQQNRESPRTFGGGTKLELK | 8.69
Clone O chimeric ROR1 antibody (antibody, V domains shown) VH: QVRLLQSGAALVKPGASVKMSCKASGYTFTDYWMSWVKQSHGKSLEWIGEIYPNSGATNFNEKFKDKATLTVDRSTSTAYMELSRLTSEDSAIYYCARGFPNNYLSWFAYWGQGTLVTVSS VL: DIVLTQSPALAVSLEQRVTIACKTSQNVDNHGISYMHWYQQKSGQEPKLLIYEGSNLAVGIPARFSGSGSGTDFTLTIDPVEADDIETYYCQQSKDDPRTFGGGTKLELK | 8.46
Clone J chimeric ROR1 antibody (antibody, V domains shown, also called J6) VH: DVKLVESGGGLLKPGGSLKLSCVASGFSFSKYWMHWVRQAPGQGLEWIAEIEYDGTETNYAPSIKDRFTISRDNAKNTLYLQMSNVRFEDAATYFCTTEEMHTTDYYYGFAYWGQGTLVTVSS VL: DIVLTQSPALAVSVGQRATISCRASQSVSISRYDFMHWYQQKPGQQPKLLIYRASNLASGIPARFSGSGSGTDFTLTINPVQADDIATYYCQQNRESPRTFGGGTKLELK | 8.47
Clone I chimeric ROR1 antibody (antibody, V domains shown) VH: EVQLVESGGGSVQPGRSLKLSCAASGFTFSDYNMAWVRQAPKKGPEWVATITYDVHNAYYRDSVKGRFTISRDDAKSTLYLQMDSLRSEDTATYFCARPGAYWGQGTLVTVSS VL: DIQLTQSPSSMSASLGDRVSLTCQSSQGIGKYLSWYQHKPGKPPKAMIYYATKLADGVPSRFSGSRSGSDFSLTISSLESEDIAIYYCLQFDDYPWTFGGGTKLELK | 8.61
